# test protocol: Caco-2 Permeability Assay
# Assay type: in vitro ADME, human
# measurement conditions: human, Caco-2, pH 7.4, Caco-2 monolayer
metric: Papp at 90 min, 10 µM

Recorded Papp at 90 min, 10 µM, per entry:
{"columns": ["entry smiles", "Papp at 90 min, 10 µM"],
 "data": [
  ["CC(C)OCCn1c(=S)[nH]c(=O)c2c1ccn2COC(=O)CCNC(=O)[C@@H](N)CO.O=C(O)C(F)(F)F", "< 0.222 ×10⁻⁶ cm/s"],
  ["CC(C)OCCn1c(=S)[nH]c(=O)c2c1ccn2COC(=O)Oc1ccccc1F", "< 0.339 ×10⁻⁶ cm/s"]
]}

Proceeding to the next compound to report its Papp at 90 min, 10 µM.
So for `CC(C)OCCn1c(=S)[nH]c(=O)c2c1ccn2COC(=O)CCCCNC(=O)[C@@H](N)[C@@H](C)O.O=C(O)C(F)(F)F` , the logged Papp at 90 min, 10 µM turned out to be < 0.196 ×10⁻⁶ cm/s

----------
# test protocol: Caco-2 Permeability Assay
# Assay type: in vitro ADME, human
# measurement conditions: human, Caco-2, pH 7.4, Caco-2 monolayer
metric: Papp at 90 min, 10 µM

Recorded Papp at 90 min, 10 µM, per entry:
{"columns": ["compound", "Papp at 90 min, 10 µM"],
 "data": [
  ["CC(C)OCCn1c(=S)[nH]c(=O)c2c1ccn2COC(=O)CCNC(=O)[C@@H](N)C(C)C.O=C(O)C(F)(F)F [Example 14]", "< 0.203 ×10⁻⁶ cm/s"],
  ["CC(C)OCCn1c(=S)[nH]c(=O)c2c1ccn2COC(=O)CCCCCCCCCCC(=O)OC(C)C [Example 262]", "< 0.214 ×10⁻⁶ cm/s"],
  ["CC(C)C[C@H](N)C(=O)NCCC(=O)OCn1ccc2c1c(=O)[nH]c(=S)n2CCOC(C)C.O=C(O)C(F)(F)F [Example 30]", "< 0.269 ×10⁻⁶ cm/s"]
]}

Proceeding to the next compound to report its Papp at 90 min, 10 µM.
So for CC(C)OCCn1c(=S)[nH]c(=O)c2c1ccn2COC(=O)CCNC(=O)[C@@H](N)[C@@H](C)O.O=C(O)C(F)(F)F [Example 40] , the logged Papp at 90 min, 10 µM turned out to be < 0.235 ×10⁻⁶ cm/s
